# study_target: Xanthine dehydrogenase/oxidase (Bos taurus, UniProt P80457)
# Sequence (P80457 whole entry): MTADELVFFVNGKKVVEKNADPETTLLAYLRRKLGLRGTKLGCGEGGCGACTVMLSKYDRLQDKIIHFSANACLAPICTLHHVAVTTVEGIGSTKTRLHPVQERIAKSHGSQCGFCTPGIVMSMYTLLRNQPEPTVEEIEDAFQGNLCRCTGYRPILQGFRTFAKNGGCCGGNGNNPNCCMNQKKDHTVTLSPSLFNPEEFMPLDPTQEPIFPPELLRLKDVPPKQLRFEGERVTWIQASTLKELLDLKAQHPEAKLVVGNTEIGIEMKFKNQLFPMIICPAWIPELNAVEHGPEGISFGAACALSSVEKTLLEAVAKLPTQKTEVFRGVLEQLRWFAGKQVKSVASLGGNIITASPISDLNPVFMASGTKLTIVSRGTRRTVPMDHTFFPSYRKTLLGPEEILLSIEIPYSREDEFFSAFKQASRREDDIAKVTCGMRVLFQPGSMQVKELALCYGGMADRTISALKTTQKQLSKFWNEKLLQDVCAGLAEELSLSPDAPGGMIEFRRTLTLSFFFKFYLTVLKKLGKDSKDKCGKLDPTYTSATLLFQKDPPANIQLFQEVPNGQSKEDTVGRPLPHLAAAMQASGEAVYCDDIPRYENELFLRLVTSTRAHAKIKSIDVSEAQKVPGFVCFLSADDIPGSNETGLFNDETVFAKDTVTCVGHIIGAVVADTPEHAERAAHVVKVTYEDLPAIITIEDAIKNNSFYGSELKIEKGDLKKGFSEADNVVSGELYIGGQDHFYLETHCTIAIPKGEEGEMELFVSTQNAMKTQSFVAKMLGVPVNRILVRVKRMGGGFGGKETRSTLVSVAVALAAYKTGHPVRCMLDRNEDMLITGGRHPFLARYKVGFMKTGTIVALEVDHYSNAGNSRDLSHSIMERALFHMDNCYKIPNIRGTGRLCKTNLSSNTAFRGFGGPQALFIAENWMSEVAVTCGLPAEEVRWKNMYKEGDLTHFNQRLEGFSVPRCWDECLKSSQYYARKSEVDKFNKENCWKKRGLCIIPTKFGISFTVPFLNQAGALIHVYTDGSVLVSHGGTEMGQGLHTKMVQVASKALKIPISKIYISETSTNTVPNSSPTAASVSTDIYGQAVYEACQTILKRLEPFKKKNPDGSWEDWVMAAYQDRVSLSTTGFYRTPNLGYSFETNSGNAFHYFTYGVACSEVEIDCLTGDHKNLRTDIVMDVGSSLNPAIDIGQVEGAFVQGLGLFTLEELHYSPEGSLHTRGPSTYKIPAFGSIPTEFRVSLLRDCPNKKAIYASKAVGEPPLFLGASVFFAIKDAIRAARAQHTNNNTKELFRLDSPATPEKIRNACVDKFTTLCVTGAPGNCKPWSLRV
# method_summary: Inhibition of bovine xanthine oxidase using xanthine as substrate measured for 6 mins at 50 uM at 25 degC by spectrophotometry
# applied_conditions: cattle, 0.1 h
assay_readout: inhibition at 50 µM (%)

Example entries begin here.
> print(dat)
                        structure.as.smiles  unit  numeric.readout
1  O=C1c2cccc(O)c2C(=O)c2c(O)cc(/C=N/c3ccccc3)cc21     %             94.5
2  C[N+](C)(C)Cc1cc(O)c2c(c1)C(=O)c1cccc(O)c1C2=O     %             68.8
3  COc1cccc2c1C(=O)c1c(OC)cc(/C=N/c3ccccc3)cc1C2=O     %             17.5

a: O=C1c2cccc(O)c2C(=O)c2c(O)cc(CCl)cc21
b: O=Cc1cc(O)c2c(c1)C(=O)c1cccc(O)c1C2=O
c: COc1cccc2c1C(=O)c1c(OC)cc(C=O)cc1C2=O
d: COc1cccc2c1C(=O)c1c(OC)cc(CO)cc1C2=O
Problem: Falling order of inhibition at 50 µM, please. Answer by writing out the labels in the requested order.
Solution: b, c, a, d

====

# study_target: Xanthine dehydrogenase/oxidase (Bos taurus)
# method_summary: Inhibition of bovine xanthine oxidase using xanthine as substrate measured for 6 mins at 50 uM at 25 degC by spectrophotometry
# applied_conditions: cattle, 0.1 h
assay_readout: inhibition at 50 µM (%)

molecule	study_target	inhibition at 50 µM [%]
O=C1c2cccc(O)c2C(=O)c2c(O)cc(CO)cc21	Xanthine dehydrogenase/oxidase (Bos taurus)	22.5

1: CC(=O)OC[C@H]1OC(OC(C)=O)[C@H](NC(=O)c2cc(O)c3c(c2)C(=O)c2cccc(O)c2C3=O)[C@H](OC(C)=O)[C@@H]1OC(C)=O (some centres undefined)
2: O=C(O)c1cc(O)c2c(c1)C(=O)c1cccc(O)c1C2=O
3: CC(=O)OC[C@H]1OC(OC(C)=O)[C@H](/N=C/c2cc(O)c3c(c2)C(=O)c2cccc(O)c2C3=O)[C@H](OC(C)=O)[C@@H]1OC(C)=O (some centres undefined)
Problem: Falling order of inhibition at 50 µM, please. Answer by writing out the labels in the requested order.
Solution: 3, 1, 2

====

# study_target: Xanthine dehydrogenase/oxidase (Bos taurus)
# method_summary: Inhibition of bovine xanthine oxidase using xanthine as substrate measured for 6 mins at 50 uM at 25 degC by spectrophotometry
# applied_conditions: cattle, 0.1 h
Collected inhibition at 50 µM values appear next to each entry.

Example entries begin here.
> print(dat)
                        structure.as.smiles        assay.readout  result
1  COc1cccc2c1C(=O)c1c(OC)cc(C[N+](C)(C)C)cc1C2=O  inhibition at 50 µM   < 10%
2  O=C1c2cccc(O)c2C(=O)c2c(O)cc(C[n+]3ccccc3)cc21  inhibition at 50 µM   < 10%
3  COc1cccc2c1C(=O)c1c(OC)cc(C[n+]3ccccc3)cc1C2=O  inhibition at 50 µM   < 10%
4  C[N+](C)(Cc1cc(O)c2c(c1)C(=O)c1cccc(O)c1C2=O)c1ccccc1  inhibition at 50 µM   < 10%
5  COc1cccc2c1C(=O)c1c(OC)cc(C[N+](C)(C)c3ccccc3)cc1C2=O  inhibition at 50 µM   < 10%

get_value(item= "COc1cccc2c1C(=O)c1c(OC)cc(/C=N/O)cc1C2=O" , readout=inhibition at 50 µM) returns < 10%

get_value(item= "COc1cccc2c1C(=O)c1c(OC)cc(/C=N/N)cc1C2=O" , readout=inhibition at 50 µM) returns < 10%

get_value(item= "COc1cccc2c1C(=O)c1c(OC)cc(CCl)cc1C2=O" , readout=inhibition at 50 µM) returns 14.3%
